# measurementDescription: HT29 colon tumor cell growth inhibition, primary screen, imaging, high content imaging, 48 h, CellTiter-Glo (AID 771);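 further: condensed means Hoechst nuclear area under control median minus 1.5 SD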
# reportedConditions: HCS imaging cell count, measured here: percent cells with condensed nuclei, at 10 µM, stronger effect = higher value
The whole screen tested about 3,300 compounds, of which about 55 (2%) were called active. Only a selection was taken, and actives are over-represented in it overall.
The threshold is inclusive: condensed nuclei of exactly 3% counts as true; values below receive false.

Field: example entries. Status: answers known.
- CCOc1ccc(-c2nnc3sc(COc4ccccc4)nn23)cc1: false
- C=CCOC(=O)C1=C(C)NC(SCC(=O)N(CC)CC)=C(C#N)C1c1ccccc1 (centres undefined): true
- COc1cccc(NC(=O)CSC2=C(C#N)C(c3ccco3)C3=C(CCCC3=O)N2)c1 (centres undefined): false

[ask] Is condensed nuclei for CCOC(=O)C1=C(c2ccccc2)NC(SCC(=O)Nc2ccccc2C)=C(C#N)C1c1ccco1 (centres undefined) at or above 3%?
[reply] true

[ask] Is condensed nuclei for "Cc1ccc2[nH]c3c(N4CCCCCC4)ncnc3c2c1" at or above 3%?
[reply] true

[ask] Is condensed nuclei for c1ccc(-c2nc(NCC3CCCO3)c3ccccc3n2)nc1 (centres undefined) at or above 3%?
[reply] false

[ask] Is condensed nuclei for "CC1(C)Cc2nc(N)c(C(=O)NCCO)cc2CO1" at or above 3%?
[reply] true

[ask] Is condensed nuclei for "Cc1cccc(-n2ncc3c(NCc4ccco4)ncnc32)c1" at or above 3%?
[reply] true

[ask] Is condensed nuclei for CCN(CC)CCN1C(=O)C(=O)/C(=C(/O)c2c(C)[nH]c(C(=O)OC)c2C)C1c1ccccc1 (centres undefined) at or above 3%?
[reply] true

[ask] Is condensed nuclei for "Clc1ccc(-n2ncc3c(NCc4ccco4)ncnc32)cc1" at or above 3%?
[reply] true

[ask] Is condensed nuclei for "Fc1ccc2[nH]c3c(N4CCN(C5CCCCC5)CC4)ncnc3c2c1" at or above 3%?
[reply] true
